test system: acylamino acid racemase; experiment: Substrate specificity of acylamino acid racemase (enzyme activity determination coupled with aminoacylase); assay type: biochemical, Streptomyces sp. Y-53; conditions: amount of produced methionine taken as 100; L-aminoacylase coupled; free amino acids checked by amino acid oxidase and HPLC
Metric Name: Relative Activity (D-form substrate)

P: CC(C)[C@@H](NC(=O)CCl)C(=O)O
Q: CC(=O)N[C@H](C)C(=O)O
R: CC(C)[C@@H](N)C(=O)O
input: Output the listed items in decreasing order of Relative Activity (D-form substrate). The response must list the labels following the requested ordering.
output: P, Q, R

A: CSCC[C@@H](NC=O)C(=O)O
B: N[C@H](Cc1ccccc1)C(=O)O
input: Which of the two items, A and B , has the greater recorded Relative Activity (D-form substrate)? Please reply using the label of the selected record.
output: A
(A: 40, B: 0)
